Target: GST-Nv-NF-kB (Cys allele) (Nematostella vectensis, UniProt E5G601 2-411)
Sequence: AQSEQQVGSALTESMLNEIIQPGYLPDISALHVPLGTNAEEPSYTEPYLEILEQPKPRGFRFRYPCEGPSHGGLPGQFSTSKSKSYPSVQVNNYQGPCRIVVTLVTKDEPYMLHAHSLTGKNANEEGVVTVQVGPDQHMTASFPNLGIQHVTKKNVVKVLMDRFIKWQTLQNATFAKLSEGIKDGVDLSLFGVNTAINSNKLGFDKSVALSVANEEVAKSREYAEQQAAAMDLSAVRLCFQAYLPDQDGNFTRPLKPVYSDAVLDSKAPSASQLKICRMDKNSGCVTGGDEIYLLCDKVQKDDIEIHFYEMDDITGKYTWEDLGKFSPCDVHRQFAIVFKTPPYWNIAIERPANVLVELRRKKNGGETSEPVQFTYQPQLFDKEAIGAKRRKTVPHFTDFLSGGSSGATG
Test: protein-binding microarray (PBM); PBM: ~300 nM protein, 6 mM HEPES pH 7.8, 80 mM KCl, 0.5 mM EDTA, 0.5 mM EGTA, 6% glycerol, 35 ng/ul poly-dIdC, 1% milk, 1 h, room temperature; Ap Aiptasia and Nv Nematostella (sea anemones) / Co Capsaspora / Aq Amphimedon (sponge) / Dm Drosophila / Hu human; RHD is the Rel homology domain; high values mean tight binding
Settings: dsDNA, one strand shown
// label = Yes if binding signal is not less than 5 z-score, otherwise No

Would you say CCGATTAACATCACGGGGGAAAATGATGTTAATCGGGTCTTGATTCGCTTGACGCTGCTG shows binding signal at minimum 5 z-score?
Yes

Threshold query (binding signal >= 5 z-score) on CCGATTAACATCAACCTCCCCCCTGATGTTAATCGGGTCTTGATTCGCTTGACGCTGCTG
No

Could you please find out whether CCGATTAACATCAGACATGGGAATGATGTTAATCGGGTCTTGATTCGCTTGACGCTGCTG has binding signal that meets 5 z-score or exceeds it?
No

Quick check: does CCGATTAACATCACGAAATCCCCTGATGTTAATCGGGTCTTGATTCGCTTGACGCTGCTG have binding signal greater than or equal to 5 z-score?
Yes

Form field: binding signal at least 5 z-score? Entry: CCGATTAACATCAGATTTCTCCCTGATGTTAATCGGGTCTTGATTCGCTTGACGCTGCTG
No

Reported binding signal at or above 5 z-score? CCGATTAACATCAGGGAGATTTGTGATGTTAATCGGGTCTTGATTCGCTTGACGCTGCTG
No

Is reported binding signal greater than or equal to 5 z-score here: CCGATTAACATCAAAAATCCCGATGATGTTAATCGGGTCTTGATTCGCTTGACGCTGCTG
No

# bool: binding signal of CCGATTAACATCAAAAAAGTACCTGATGTTAATCGGGTCTTGATTCGCTTGACGCTGCTG >= 5 z-score
Yes

For this sequence, is measured binding signal 5 z-score or higher? CCGATTAACATCAGGGGAGTATATGATGTTAATCGGGTCTTGATTCGCTTGACGCTGCTG
No

Confirm if binding signal reported for the sequence CCGATTAACATCAGGGAAACCCATGATGTTAATCGGGTCTTGATTCGCTTGACGCTGCTG is 5 z-score or above.
No

Check this sequence for binding signal at or above 5 z-score: CCGATTAACATCAGGGTTTTACCTGATGTTAATCGGGTCTTGATTCGCTTGACGCTGCTG
No

Quick check: does CCGATTAACATCACAGCCCCCCCTGATGTTAATCGGGTCTTGATTCGCTTGACGCTGCTG have binding signal greater than or equal to 5 z-score?
No

Does binding signal meet or surpass 5 z-score for CCGATTAACATCAGGAATGTACCTGATGTTAATCGGGTCTTGATTCGCTTGACGCTGCTG ?
No

Is the recorded value of binding signal equal to or greater than 5 z-score for this sequence? CCGATTAACATCACAGAAACCCCTGATGTTAATCGGGTCTTGATTCGCTTGACGCTGCTG
No

Decide: is the reported value of binding signal for CCGATTAACATCAAGAGATTCCCTGATGTTAATCGGGTCTTGATTCGCTTGACGCTGCTG equal to or greater than 5 z-score?
No

Decide: is the reported value of binding signal for CCGATTAACATCACGGTACTTCCTGATGTTAATCGGGTCTTGATTCGCTTGACGCTGCTG equal to or greater than 5 z-score?
No

Does CCGATTAACATCAGGGAATTTCATGATGTTAATCGGGTCTTGATTCGCTTGACGCTGCTG have a reported binding signal of at least 5 z-score?
Yes

binding signal >= 5 z-score for CCGATTAACATCAAAAAAATTCCTGATGTTAATCGGGTCTTGATTCGCTTGACGCTGCTG ?
No
